# residual activity per entry
- assay.target: MARK2 (human) (UniProt Q7KZI7)
- Sequence (Q7KZI7 whole entry, looked up): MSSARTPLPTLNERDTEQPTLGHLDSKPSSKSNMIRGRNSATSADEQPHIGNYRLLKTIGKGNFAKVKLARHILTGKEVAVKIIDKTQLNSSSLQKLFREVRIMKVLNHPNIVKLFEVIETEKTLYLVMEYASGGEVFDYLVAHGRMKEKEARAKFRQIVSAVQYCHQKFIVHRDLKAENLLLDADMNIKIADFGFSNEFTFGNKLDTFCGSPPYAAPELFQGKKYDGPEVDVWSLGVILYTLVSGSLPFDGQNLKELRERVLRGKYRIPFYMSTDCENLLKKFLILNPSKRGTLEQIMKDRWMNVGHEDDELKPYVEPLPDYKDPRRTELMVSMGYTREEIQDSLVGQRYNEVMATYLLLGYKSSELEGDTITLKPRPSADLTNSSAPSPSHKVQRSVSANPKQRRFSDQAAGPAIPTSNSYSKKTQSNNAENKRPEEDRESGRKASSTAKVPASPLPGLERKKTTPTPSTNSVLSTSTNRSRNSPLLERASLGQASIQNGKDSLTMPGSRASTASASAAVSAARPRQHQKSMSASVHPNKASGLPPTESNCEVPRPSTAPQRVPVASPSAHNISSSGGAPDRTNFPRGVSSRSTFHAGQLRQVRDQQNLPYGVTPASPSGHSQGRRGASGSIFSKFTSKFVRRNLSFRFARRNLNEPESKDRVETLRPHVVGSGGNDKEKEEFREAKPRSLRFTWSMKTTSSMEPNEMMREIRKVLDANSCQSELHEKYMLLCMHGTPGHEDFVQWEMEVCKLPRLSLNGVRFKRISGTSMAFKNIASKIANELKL
- assay.method.text: radiometric filter-binding kinase assay
- condition.set: compound 10.0 µM
Just the number in %, nothing appended.

{"columns": ["structure.smiles", "residual activity (%)"],
 "data": [
  ["NC(=O)c1cc(-c2ccnc(NC3CCCCC3)c2)nc(N2CCNCC2)c1", 31],
  ["NC(=O)c1ccc(-c2ccc(Oc3cncc4sc(-c5nn[nH]n5)cc34)cc2)cc1", 83],
  ["c1ccc2c(-c3cnn4cc(-c5ccc(N6CCNCC6)cc5)cnc34)ccnc2c1", 32],
  ["O=C(Nc1ccccc1-c1cn2c(CN3CCNCC3)csc2n1)c1cnc2ccccc2n1", 83]
]}

Read the next record carefully.
Request the reported residual activity associated with CN1C(=O)[C@@H](Cc2c[nH]c3ccccc23)NC1=S
109

----------
# residual activity per entry
- assay.target: MINK1 (human)
- assay.method.text: radiometric filter-binding kinase assay
- condition.set: compound 10.0 µM
Just the number in %, nothing appended.

{"columns": ["compound", "endpoint.value"],
 "data": [
  ["NC(=O)c1c(NC(=O)C2CC2)sc2c1CCCC2", 37]
]}

Request the reported residual activity associated with Cc1ccc2c(c1)C(=O)[C@@]1(O)CCN(c3ccccc3)C1=N2
72

Request the reported residual activity associated with Cc1ccc(-c2ccc3c(ccc4sc5c(c43)NC[C@@H](C)NC5=O)n2)cn1
40

Request the reported residual activity associated with COc1cc(C(=O)N2CCOCC2)c(F)cc1Nc1ncc(C(F)(F)F)c(NC2CC2)n1
109

----------
- assay.target: MAP3K11 (human)
- assay.method.text: radiometric filter-binding kinase assay
- condition.set: compound 10.0 µM
# residual activity per entry
Please report the result as a number followed by the unit.

{"columns": ["molecule", "residual activity"],
 "data": [
  ["Nc1cccc2c1CN(C1CCC(=O)NC1=O)C2=O (centres undefined)", "98%"],
  ["O=S(=O)(c1ccc(F)c2nonc12)N1CCN(c2ncc(C(F)(F)F)cc2Cl)CC1", "89%"],
  ["Oc1ccc(/C=C/c2cc(O)cc(O)c2)cc1", "35%"],
  ["O=C(Nc1ccccc1-c1cn2c(CN3CCNCC3)csc2n1)c1cnc2ccccc2n1", "56%"],
  ["Cc1ccc(-c2ccc3c(ccc4sc5c(c43)NC[C@@H](C)NC5=O)n2)cn1", "73%"]
]}

Request the reported residual activity associated with COc1cc2ncn(-c3cc(OCc4ccccc4S(C)(=O)=O)c(C#N)s3)c2cc1OC
3%

Request the reported residual activity associated with CC1=C(CO)C(=O)O[C@@H]([C@@H](C)[C@H]2CC[C@H]3[C@@H]4C[C@H]5O[C@]56[C@@H](O)C=CC(=O)[C@]6(C)C4CC[C@]23C)C1 (some centres undefined)
97%

Request the reported residual activity associated with FC(F)(F)c1ccc(-c2ccc(Oc3cncc4sc(-c5nn[nH]n5)cc34)cc2)cc1
61%

Request the reported residual activity associated with Cc1ccc2c(c1)C(=O)[C@@]1(O)CCN(c3ccccc3)C1=N2
73%

----------
- assay.target: TTK (human) (UniProt P33981)
- Sequence (P33981 whole entry, looked up): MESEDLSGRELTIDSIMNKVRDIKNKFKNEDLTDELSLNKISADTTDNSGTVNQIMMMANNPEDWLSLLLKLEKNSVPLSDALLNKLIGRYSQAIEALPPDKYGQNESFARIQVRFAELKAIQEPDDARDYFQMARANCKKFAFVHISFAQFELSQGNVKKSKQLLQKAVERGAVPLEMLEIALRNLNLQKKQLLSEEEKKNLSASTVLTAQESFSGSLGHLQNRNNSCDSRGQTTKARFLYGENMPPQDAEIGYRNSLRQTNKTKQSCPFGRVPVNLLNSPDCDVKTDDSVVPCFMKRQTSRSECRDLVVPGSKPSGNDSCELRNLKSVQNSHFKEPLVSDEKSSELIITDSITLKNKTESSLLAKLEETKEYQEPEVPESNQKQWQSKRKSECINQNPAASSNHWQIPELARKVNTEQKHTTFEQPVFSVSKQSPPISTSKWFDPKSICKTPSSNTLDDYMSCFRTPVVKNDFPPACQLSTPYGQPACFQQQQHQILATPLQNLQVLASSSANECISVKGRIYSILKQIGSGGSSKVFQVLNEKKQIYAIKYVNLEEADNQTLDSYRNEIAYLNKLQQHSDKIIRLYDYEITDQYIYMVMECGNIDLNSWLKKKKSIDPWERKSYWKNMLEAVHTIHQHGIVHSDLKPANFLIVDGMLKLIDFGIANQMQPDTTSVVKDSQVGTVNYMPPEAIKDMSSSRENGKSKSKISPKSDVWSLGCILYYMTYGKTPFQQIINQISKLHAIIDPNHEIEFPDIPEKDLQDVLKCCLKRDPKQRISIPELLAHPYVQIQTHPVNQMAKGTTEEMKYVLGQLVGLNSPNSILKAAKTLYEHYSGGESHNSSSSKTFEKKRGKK
- assay.method.text: radiometric filter-binding kinase assay
- condition.set: compound 1.0 µM
just bin them by residual activity: lo: < 80%; mid: ≥ 80% and < 90%; hi: ≥ 90%

Example entries and their recorded answers appear below.
{"columns": ["compound", "discrete.label"],
 "data": [
  ["O=C(O)c1cc(N=Nc2ccc(S(=O)(=O)Nc3ccccn3)cc2)ccc1O", "hi"],
  ["O=C(NOCC(O)CO)c1ccc(F)c(F)c1Nc1ccc(I)cc1Cl (stereo not given)", "hi"],
  ["COc1ccc(N(C(=O)Nc2c(C)cccc2C)c2cc(Nc3ccc(N4CCN(C)CC4)cc3)ncn2)c(OC)c1", "lo"],
  ["NC(=O)c1cc(-c2ccnc(NC3CCCCC3)c2)nc(N2CCNCC2)c1", "mid"]
]}

Band for Cc1cc(NC(=O)c2cccc(NC(=O)/C=C/CN(C)C)c2)ccc1Nc1nccc(-c2cccnc2)n1 ?
lo

Band for O=c1c(O)c(-c2ccc(O)c(O)c2)oc2cc(O)c(O)c(O)c12 ?
lo

Band for NC(=O)c1c(NC(=O)C2CC2)sc2c1CCCC2 ?
hi

Band for COc1cc2ncn(-c3cc(OCc4ccccc4S(C)(=O)=O)c(C#N)s3)c2cc1OC ?
mid

Band for NS(=O)(=O)OC[C@@H]1C[C@@H](n2ccc3c(N[C@H]4CCc5ccccc54)ncnc32)C[C@@H]1O ?
mid

Band for FC(F)(F)c1ccc(-c2ccc(Oc3cncc4sc(-c5nn[nH]n5)cc34)cc2)cc1 ?
mid

Band for C=C1C(=O)OC2C1CC/C(C)=C/CCC1(C)OC21 (stereo not given) ?
hi

Band for Cc1ccc(Sc2cnc(Nc3cccc(Br)n3)s2)cc1C(=O)N1CCN(C(=O)CN)CC1 ?
lo
